Measured logP, listed per entry.
Assay: log P by HPLC on reversed-phase column (EEC Directive 79/831 Annex V.A8)
Format: physicochemical
Conditions: HPLC on reversed-phase column (C 18), 40° C., 0.1% aqueous formic acid and acetonitrile, linear gradient 10% to 90% acetonitrile
Form: value (number only, do not type unit).

In the examples that follow, each entry is paired with its recorded logP.
Cn1nc(C(F)F)c(C(=O)NCc2ccccc2-c2ccccc2)c1Cl: 3.39
COc1ccc(CNC(=O)c2c(C(F)F)nn(C)c2F)cc1OC: 1.79
CC(NC(=O)c1c(C(F)F)nn(C)c1Cl)c1ccc(-c2ccccc2)cc1 (racemic): 3.62
CC(c1cc(Cl)cc(Cl)c1)N(C)C(=S)c1c(C(F)F)nn(C)c1F (centres unmarked): 4.24

What does the record list as logP for Cn1nc(C(F)F)c(C(=O)NCc2ccc(Oc3ccccc3)cc2)c1Cl ? 3.37
